# assayed-system: RSV prefusion F (preF), subtype A (respiratory syncytial virus, subtype A, UniProt P03420 26-513)
# assay-text: BLI, IgG
observed-property: pKd
pKd field: float, defined as -log10 of concentration (mol/L).

Examples with their reported pKd follow.
[
  {
    "binder": "ADI-20972 (antibody, V domains shown) VH: QVQLQQWGAGLLRPSETLSLTCAVSGGSFSGHYWSWIRQPPGKGLEWIGGINHSGNTNYSPSLRSRVTMSVDTSRNQFSLMLRSVTAADTAVYFCARNVPNLYGDYPRWFDPWGQGTLVTVSS VL: QSVLTQPASVSGSPGQSITISCTGTSSDVGGFNYVSWYQHHPGKAPKLMIYDVNNRPSGASNRFSGSKSGNTASLTISGLQAEDEADYYCSSYRSSDTLYVFGTGTKVTVL",
    "pKd": 9.05
  },
  {
    "binder": "ADI-21027 (antibody, V domains shown) VH: QVQLQESGPGLVKPSGTLSLTCVVSGGSIRSHNYWTWVRQPPGKGLEWIGEIYHSGNTNYNPSLKSRVTLSIDKSKNVFSLRLNSVTAADTAVYYCVGGGPFAPYYFENWGQGTLVTVSS VL: QSVLTQPPSVSGAPGQRVTISCTGSSSNIGAGYAVHWYHQLPGTAPKLLIYDNNNRPSGVPDRFSGSKSGSSASLAITGLQAEDEADYYCQSYDRSLSGYVFGTGTKLTVL",
    "pKd": 9.53
  }
]

Let us move to another entry and its pKd.
INPUT: May I ask what pKd has been recorded for ADI-21043 (antibody, V domains shown) VH: QVQLVQSGAEVKKPGASVKVSCKASGYTFTSYGITWVRQAPGQGLEWMGWISTYNGKTNYAQKFKGRVTMTTDTSTSTAYVELTSLRSDDTAVYYCAREFPTRIVDSFYMDVWGKGTTVTVSS VL: SYELTQPPSVSVAPGQTARITCGGSNIGSETVHWYQQKPGQAPVLVVYGDSDRPSGIPERFSGSNSGNTATLTISRVEAGDEADYYCQVWDSRSDDFHVFGSGTKLTVL ?
OUTPUT: 9.95
